Listing: MIC of selected compounds
Test system: E. faecalis VRE 6
assay: MIC, broth microdilution, vancomycin-resistant E. faecalis VRE 6 (VanA)
Assay type: cell-based, Enterococcus faecalis
conditionInfo: Enterococcus faecalis VRE 6 (vancomycin-resistant); read-out: MIC
Quick reminder: number only, in µM, skip the unit.

Use these answered entries as a reference point.
compound	MIC / µM
CN[C@H](CC(C)C)C(=O)N[C@H]1C(=O)N[C@@H](CC(N)=O)C(=O)N[C@H]2C(=O)N[C@H]3C(=O)N[C@H](C(=O)N[C@H](C(=O)NCC(=O)Nc4ccc(C(F)(F)F)cc4)c4cc(O)cc(O)c4-c4cc3ccc4O)[C@H](O)c3ccc(c(Cl)c3)Oc3cc2cc(c3O[C@@H]2O[C@H](CO)[C@@H](O)[C@H](O)[C@H]2O[C@H]2C[C@](C)(N)[C@H](O)[C@H](C)O2)Oc2ccc(cc2Cl)[C@H]1O	6.25
C#Cc1ccc(NC(=O)CNC(=O)C2NC(=O)C3NC(=O)C(NC(=O)C4NC(=O)C(CC(N)=O)NC(=O)C(NC(=O)C(CC(C)C)NC)C(O)c5ccc(c(Cl)c5)Oc5cc4cc(c5OC4OC(CO)C(O)C(O)C4OC4CC(C)(N)C(O)C(C)O4)Oc4ccc(cc4Cl)C3O)c3ccc(O)c(c3)-c3c(O)cc(O)cc32)cc1 (centres unmarked)	3.13

Which measured MIC value corresponds to CNC(CC(C)C)C(=O)NC1C(=O)NC(CC(N)=O)C(=O)NC2C(=O)NC3C(=O)NC(C(=O)NC(C(=O)NCCCNC(=O)c4ccc(-c5ccccc5)cc4)c4cc(O)cc(O)c4-c4cc3ccc4O)C(O)c3ccc(c(Cl)c3)Oc3cc2cc(c3OC2OC(CO)C(O)C(O)C2OC2CC(C)(N)C(O)C(C)O2)Oc2ccc(cc2Cl)C1O (centres unmarked) ? 1.56

Which measured MIC value corresponds to CNC(CC(C)C)C(=O)NC1C(=O)NC(CC(N)=O)C(=O)NC2C(=O)NC3C(=O)NC(C(=O)NC(C(=O)NCC(=O)Nc4cccc(OC)c4)c4cc(O)cc(O)c4-c4cc3ccc4O)C(O)c3ccc(c(Cl)c3)Oc3cc2cc(c3OC2OC(CO)C(O)C(O)C2OC2CC(C)(N)C(O)C(C)O2)Oc2ccc(cc2Cl)C1O (centres unmarked) ? 6.25

Which measured MIC value corresponds to CN[C@H](CC(C)C)C(=O)N[C@H]1C(=O)N[C@@H](CC(N)=O)C(=O)N[C@H]2C(=O)N[C@H]3C(=O)N[C@H](C(=O)N[C@H](C(=O)NCCCNC(=O)c4ccc5ccccc5c4)c4cc(O)cc(O)c4-c4cc3ccc4O)[C@H](O)c3ccc(c(Cl)c3)Oc3cc2cc(c3O[C@@H]2O[C@H](CO)[C@@H](O)[C@H](O)[C@H]2O[C@H]2C[C@](C)(N)[C@H](O)[C@H](C)O2)Oc2ccc(cc2Cl)[C@H]1O ? 3.13

Which measured MIC value corresponds to CCCCCCCCCC(=O)N[C@@H](Cc1c[nH]c2ccccc12)C(=O)N[C@H](CC(N)=O)C(=O)N[C@@H](CC(=O)O)C(=O)N[C@@H]1C(=O)NCC(=O)N[C@@H](CCCN)C(=O)N[C@@H](CC(=O)O)C(=O)N[C@H](C)C(=O)N[C@@H](CC(=O)O)C(=O)NCC(=O)N[C@H](CO)C(=O)N[C@@H]([C@H](C)CC(=O)O)C(=O)N[C@@H](CC(=O)c2ccccc2N)C(=O)O[C@@H]1C [Daptomycin, reference compound] ? 6.25

Which measured MIC value corresponds to CN[C@H](CC(C)C)C(=O)N[C@H]1C(=O)N[C@@H](CC(N)=O)C(=O)N[C@H]2C(=O)N[C@H]3C(=O)N[C@H](C(=O)N[C@H](C(=O)NCC(=O)Nc4cccc(F)c4)c4cc(O)cc(O)c4-c4cc3ccc4O)[C@H](O)c3ccc(c(Cl)c3)Oc3cc2cc(c3O[C@@H]2O[C@H](CO)[C@@H](O)[C@H](O)[C@H]2O[C@H]2C[C@](C)(N)[C@H](O)[C@H](C)O2)Oc2ccc(cc2Cl)[C@H]1O ? 6.25

Which measured MIC value corresponds to CNC(CC(C)C)C(=O)NC1C(=O)NC(CC(N)=O)C(=O)NC2C(=O)NC3C(=O)NC(C(=O)NC(C(=O)NCCCNC(=O)c4nc5ccccc5[nH]4)c4cc(O)cc(O)c4-c4cc3ccc4O)C(O)c3ccc(c(Cl)c3)Oc3cc2cc(c3OC2OC(CO)C(O)C(O)C2OC2CC(C)(N)C(O)C(C)O2)Oc2ccc(cc2Cl)C1O (centres unmarked) ? 25

Which measured MIC value corresponds to CN[C@H](CC(C)C)C(=O)N[C@H]1C(=O)N[C@@H](CC(N)=O)C(=O)N[C@H]2C(=O)N[C@H]3C(=O)N[C@H](C(=O)N[C@H](C(=O)NCC(=O)Nc4ccc(NS(=O)(=O)c5ccc(Cl)cc5Cl)cc4)c4cc(O)cc(O)c4-c4cc3ccc4O)[C@H](O)c3ccc(c(Cl)c3)Oc3cc2cc(c3O[C@@H]2O[C@H](CO)[C@@H](O)[C@H](O)[C@H]2O[C@H]2C[C@](C)(N)[C@H](O)[C@H](C)O2)Oc2ccc(cc2Cl)[C@H]1O ? 3.13

Which measured MIC value corresponds to CNC(CC(C)C)C(=O)NC1C(=O)NC(CC(N)=O)C(=O)NC2C(=O)NC3C(=O)NC(C(=O)NC(C(=O)NCC(=O)Nc4ccc(C#CC5CC5)cc4)c4cc(O)cc(O)c4-c4cc3ccc4O)C(O)c3ccc(c(Cl)c3)Oc3cc2cc(c3OC2OC(CO)C(O)C(O)C2OC2CC(C)(N)C(O)C(C)O2)Oc2ccc(cc2Cl)C1O (centres unmarked) ? 6.25

Which measured MIC value corresponds to CN[C@H](CC(C)C)C(=O)N[C@H]1C(=O)N[C@@H](CC(N)=O)C(=O)N[C@H]2C(=O)N[C@H]3C(=O)N[C@H](C(=O)N[C@H](C(=O)NCC(=O)Nc4ccc(C#Cc5ccccc5)cc4)c4cc(O)cc(O)c4-c4cc3ccc4O)[C@H](O)c3ccc(c(Cl)c3)Oc3cc2cc(c3O[C@@H]2O[C@H](CO)[C@@H](O)[C@H](O)[C@H]2O[C@H]2C[C@](C)(N)[C@H](O)[C@H](C)O2)Oc2ccc(cc2Cl)[C@H]1O ? 0.39
